assay: Fraction unbound in healthy human (6 volunteers) serum at 1 g, po administered as single dose measured after 2 hrs; assay type: ADME, organism-based
ENDPOINT_NAME: fraction unbound at 2 h
Form rule: numeric answer, no unit written next to it.

Task item: Recorded fraction unbound at 2 h of CCCC(CCC)C(=O)[O-].[Na+] [VALPROATE SODIUM] , please.
Reply: 0.058

----------
assay: Total serum concentration in healthy human (6 volunteers) at 1 g, po administered as single dose measured after 48 hrs by gas liquid chromatography; assay type: ADME, organism-based; settings: read-out: Drug uptake
ENDPOINT_NAME: concentration at 48 h (ng/mL)
Give just the numeric value; ng/mL need not be written.

Task item: Entry under review: CCCC(CCC)C(=O)[O-].[Na+] [VALPROATE SODIUM] . Reported concentration at 48 h?
Reply: 10600
